# Tested on: Staphylococcus aureus OC4172
# TEST METHOD NOTES: MIC by microdilution broth method (NCCLS), C Strain
# Type: cell-based
# TEST CONDITIONS: cation adjusted Mueller-Hinton broth, 35° C., 16-20 hours
# Procedure: Minimum inhibitory concentration (MIC) is an indicator of in vitro antibacterial activity. […] The in vitro antimicrobial activity of representative compounds of the present invention was determined by the microdilution broth method following the test method from the National Committee for Clinical Laboratory Standards (NCCLS). […]
Each item that follows carries a reported MIC.
Response body: numeric value in µg/mL, unit text excluded.

Completed entries (count: 4):
MOLECULAR STRING | STUDY TARGET | UNIT SYMBOL | MIC
CO[C@H]1/C=C/O[C@@]2(C)Oc3c(C)c(O)c4c(O)c(c5c(CN(Cc6ccc(N7CCN(C)CC7)cc6)Cc6ccc(N7CCN(C)CC7)cc6)c[nH]c5c4c3C2=O)NC(=O)/C(C)=C\C=C\[C@H](C)[C@H](O)[C@@H](C)[C@@H](O)[C@@H](C)[C@H](OC(C)=O)[C@@H]1C | Staphylococcus aureus OC4172 | µg/mL | 0.25
CO[C@H]1/C=C/O[C@@]2(C)Oc3c(C)c(O)c4c(O)c(c5c(CN6CCCCC6)c[nH]c5c4c3C2=O)NC(=O)/C(C)=C\C=C\[C@H](C)[C@H](O)[C@@H](C)[C@@H](O)[C@@H](C)[C@H](OC(C)=O)[C@@H]1C | Staphylococcus aureus OC4172 | µg/mL | 4
CO[C@H]1/C=C/O[C@@]2(C)Oc3c(C)c(O)c4c(O)c(c5c(CN(C)Cc6ccc(N7CCN(C)CC7)cc6)c[nH]c5c4c3C2=O)NC(=O)/C(C)=C\C=C\[C@H](C)[C@H](O)[C@@H](C)[C@@H](O)[C@@H](C)[C@H](OC(C)=O)[C@@H]1C | Staphylococcus aureus OC4172 | µg/mL | 1
CO[C@H]1/C=C/O[C@@]2(C)Oc3c(C)c(O)c4c(O)c(c5c(CN)c[nH]c5c4c3C2=O)NC(=O)/C(C)=C\C=C\[C@H](C)[C@H](O)[C@@H](C)[C@@H](O)[C@@H](C)[C@H](OC(C)=O)[C@@H]1C | Staphylococcus aureus OC4172 | µg/mL | 0.12

Turning now to a further record.
Form field: reported MIC of CO[C@H]1/C=C/O[C@@]2(C)Oc3c(C)c(O)c4c(O)c(c5c(CNCc6ccc(N7CCN(C)CC7)cc6)c[nH]c5c4c3C2=O)NC(=O)/C(C)=C\C=C\[C@H](C)[C@H](O)[C@@H](C)[C@@H](O)[C@@H](C)[C@H](OC(C)=O)[C@@H]1C 1
